Below, each entry is listed with its recorded TGI.
- System: IGROV1 ovarian
- ASSAY NOTES: NCI tumour cell line growth inhibition, 48 h
VALUE TYPE: TGI (µM)

INSERT INTO results (compound, value_type, display_unit, qualifier_symbol, measured) VALUES
  ('N=c1n(Cc2ccccc2)c(N)cc(=O)n1Cc1ccccc1', 'TGI', 'µM', '>', 59.8),
  ('COC(=O)c1cnn2c1ccc1ccccc12', 'TGI', 'µM', '>', 100),
  ('CC(=O)OC1Oc2cc(C)c(C)cc2-c2oc(=O)c(-c3ccc(F)cc3)cc21 (stereo not given)', 'TGI', 'µM', '=', 85.2),
  ('COc1ccc(NC(=O)CC(=O)N2N=C(N(CCC#N)c3cccc(C)c3)CC2c2ccccc2)cc1 (stereo not given)', 'TGI', 'µM', '>', 100),
  ('CC1=CC(=O)[C@@H](O)[C@]2(C)[C@H]3[C@@]4(O)OC[C@@]35[C@@H](C[C@@H]12)OC(=O)C(OC(=O)CC1=CCCC1)[C@H]5[C@@H](C)[C@H]4O (stereo not given in full)', 'TGI', 'µM', '=', 0.112);

* * *

- System: HOP-62 NSCLC
- ASSAY NOTES: NCI tumour cell line growth inhibition, 48 h
Where a SMILES comes first, the peptide text is derived from it. [ ]: non-standard residue; d: D form. The star is where a group is joined. NMeF = CN[C@@H](Cc1ccccc1)C(=O)O; NMeV = CN[C@H](C(=O)O)C(C)C; Boc = CC(C)(C)OC(=O)*; OBn = c1ccc(CO*)cc1
Below, each entry is listed with its recorded TGI.
VALUE TYPE: TGI

INSERT INTO results (molecule, study_system, value_type, measured) VALUES
  ('O=C(O)CP(=O)(O)O', 'HOP-62 NSCLC', 'TGI', '> 100 µM'),
  ('N#Cc1c(-c2cccc(Cl)c2)cc(-c2ccc(Cl)cc2)nc1N', 'HOP-62 NSCLC', 'TGI', '36.3 µM'),
  ('N#CCCOCN(CO)c1nc(N(CO)COCCC#N)nc(N(CO)COCCC#N)n1', 'HOP-62 NSCLC', 'TGI', '> 100 µM'),
  ('C[C@@H](CO)C1=CC(C#C[Si](C)(C)C)N(C(=O)Oc2ccccc2)c2ccccc21 (some centres not stated)', 'HOP-62 NSCLC', 'TGI', '30 µM'),
  ('CC(C)[C@@H](C(=O)N1CCC[C@H]1C(=O)OCc1ccccc1)N(C)C(=O)[C@H](C(C)C)N(C)C(=O)[C@H](Cc1ccccc1)N(C)C(=O)[C@H](NC(=O)OC(C)(C)C)C(C)C (Boc-[dV][NMeF][NMeV][NMeV]P-OBn)', 'HOP-62 NSCLC', 'TGI', '> 100 µM'),
  ('C=C1CC2CC(=O)C(O)C(C1)C2 (configuration not stated)', 'HOP-62 NSCLC', 'TGI', '> 100 µM'),
  ('CCOC(=O)NC(=O)c1cn(CCCOC(=O)NCCCCCCNC(=O)OCCCn2cc(C(=O)NC(=O)OCC)c(=O)[nH]c2=O)c(=O)[nH]c1=O', 'HOP-62 NSCLC', 'TGI', '> 100 µM');

* * *

- Tested on: MDA-MB-231 breast
- ASSAY NOTES: NCI tumour cell line growth inhibition, 48 h
Below, each entry is listed with its recorded log10 TGI.
VALUE TYPE: log10 TGI (log10 of the value in µM)

INSERT INTO measurements (compound, measured) VALUES
  ('COC(=O)c1cc(C)ccc1C1CN=NC12Cc1cccc(C)c1C2=O (stereo not given)', 1.88),
  ('O=C1N=NC(=O)N1c1cc(C(F)(F)F)cc(C(F)(F)F)c1', 0.82),
  ('O=C(NCCNc1nccc(-c2c(-c3cccc(O)c3)nc3sccn23)n1)Nc1cccc(C(F)(F)F)c1', 1.09),
  ('Cc1cc(C)c2nc3nc(C)cc(C)c3c(N)c2c1', 1.46),
  ('Clc1ccc(C2=C(c3ccccc3)C(c3ccc(Cl)cc3)N3C(=N[C@H]4CCCC[C@@H]43)N2)cc1 (stereo not given in full)', 1.47),
  ('CC1=CC(=O)[C@@H](O)[C@]2(C)[C@H]3[C@@]4(O)OC[C@@]35[C@@H](C[C@@H]12)OC(=O)C(OC(=O)CC1=CCCC1)[C@H]5[C@@H](C)[C@H]4O (stereo not given in full)', -0.43),
  ('CCC1c2[nH]c3ccccc3c2C[C@H]2C(=O)NC(CCCCNC(=O)OC(C)(C)C)C(=O)N12 (stereo not given in full)', 2.00);

* * *

- Test system: LXFL 529 NSCLC
- ASSAY NOTES: NCI tumour cell line growth inhibition, 48 h
VALUE TYPE: TGI

INSERT INTO assay_data (compound, measured) VALUES
  ('CN(C)[C@H]1CC[C@H]2[C@@H]3CCC4C[C@@H](NC(=O)NC(Cc5ccccc5)c5nccs5)CC[C@]4(C)[C@H]3CC[C@]12C (stereo partly specified)', '1.61 µM'),
  ('COc1ccc(NC(=O)CC(=O)N2N=C(N(CCC#N)c3cccc(C)c3)CC2c2ccccc2)cc1 (stereo unspecified)', '> 100 µM'),
  ('O=C(c1nc2ccc(Cl)cc2[nH]c1=O)C(O)c1ccc2c(c1)OCO2 (stereo unspecified)', '> 100 µM'),
  ('COC(=O)C(Cc1ccccc1)NC(=O)Cn1ccnc1[N+](=O)[O-] (stereo unspecified)', '> 100 µM'),
  ('COc1ccc(-c2cc(-c3cc(C)ccc3O)[nH]c(=O)n2)cc1', '> 100 µM'),
  ('COC(=O)CS(=O)c1ccccc1 (stereo unspecified)', '> 100 µM'),
  ('Cc1ccc2ccc3ccc(C)nc3c2n1', '> 100 µM'),
  ('COc1cc(Nc2nc3cc(C(F)(F)F)ccc3nc2-c2ccccc2)cc(OC)c1OC', '> 100 µM'),
  ('O=NN/C(=C1\Nc2ccc([N+](=O)[O-])cc2NC1=O)C(O)c1ccc([N+](=O)[O-])cc1 (stereo unspecified)', '> 100 µM'),
  ('CC(=O)c1ccc(NC(=O)C(=O)C(C(=O)c2ccc(Cl)c(Cl)c2)C2OC(=O)c3ccccc32)cc1 (stereo unspecified)', '32.8 µM'),
  ('CCOC(=O)C(=O)Nc1c(CC)cccc1C(C)CC (stereo unspecified)', '> 100 µM');

* * *

Below, each entry is listed with its recorded TGI.
- System: OVCAR-8 ovarian
- ASSAY NOTES: NCI tumour cell line growth inhibition, 48 h
Where a SMILES comes first, the peptide text is derived from it. [ ]: non-standard residue; d: D form. The star is where a group is joined. NMeF = CN[C@@H](Cc1ccccc1)C(=O)O; NMeV = CN[C@H](C(=O)O)C(C)C; Boc = CC(C)(C)OC(=O)*; OBn = c1ccc(CO*)cc1
VALUE TYPE: TGI (µM)

INSERT INTO assay_data (compound, qualifier_symbol, measured) VALUES
  ('Cc1c(-c2nnc(-c3ccc(F)cc3)o2)nnn1-c1ccnc2c(C(F)(F)F)cccc12', '>', 100),
  ('O=C(O)c1cccc2cccc(C(=O)O)c12.[Hg]', '=', 46.2),
  ('N#Cc1c(-c2cccc(Cl)c2)cc(-c2ccc(Cl)cc2)nc1N', '=', 70.7),
  ('CC(C)[C@@H](C(=O)N1CCC[C@H]1C(=O)OCc1ccccc1)N(C)C(=O)[C@H](C(C)C)N(C)C(=O)[C@H](Cc1ccccc1)N(C)C(=O)[C@H](NC(=O)OC(C)(C)C)C(C)C (Boc-[dV][NMeF][NMeV][NMeV]P-OBn)', '>', 100),
  ('NC(=O)Nc1c([N+](=O)[O-])cc(C(F)(F)F)cc1[N+](=O)[O-]', '>', 100),
  ('CCOC(=O)c1[nH]cc(C)c1-c1c[nH]c2ccccc12', '>', 100),
  ('O=C1CCC(N2Cc3c(C#CCCCNC(=O)c4cc5c(o4)C(=O)c4ccccc4C5=O)cccc3C2=O)C(=O)N1 (centres undefined)', '=', 87),
  ('CCOC(=O)c1c[nH]cc1-c1cn(S(=O)(=O)c2ccccc2)cc1C', '>', 100),
  ('Cc1cc2cc3cc(C)c(N)cc3[n+](C)c2cc1N', '=', 5.88);

* * *

- Test system: EKVX NSCLC
- ASSAY NOTES: NCI tumour cell line growth inhibition, 48 h
Below, each entry is listed with its recorded TGI.
VALUE TYPE: TGI

INSERT INTO results (compound, study_system, measured) VALUES
  ('COc1ccc(C(=O)CC(=O)C(=O)Nc2ccc(C)c(C)c2)cc1', 'EKVX NSCLC', '> 100 µM'),
  ('NC(=O)CCC(NC(=O)Cc1ccccc1)C(=O)O (centres undefined) (tested in a mixture with another compound)', 'EKVX NSCLC', '> 8130 µM'),
  ('O=C1C(=c2cc3c(c4ccccc24)=NC24CCCCC2C(c2ccccc2)C=C(c2ccccc2)N34)C(=O)c2ccccc21 (centres undefined)', 'EKVX NSCLC', '> 100 µM'),
  ('CC(=O)OC1CC2C(C)(C)C(=O)C=C[C@]2(C)C2CCC3(C)C(c4ccoc4)[C@@H](O)[C@H]4O[C@]43[C@]12C (some centres undefined)', 'EKVX NSCLC', '> 100 µM');
